These entries and their values trace back to the supplement of paper PMC12783771.

B1: library; numbered along this chain (parent)
chain: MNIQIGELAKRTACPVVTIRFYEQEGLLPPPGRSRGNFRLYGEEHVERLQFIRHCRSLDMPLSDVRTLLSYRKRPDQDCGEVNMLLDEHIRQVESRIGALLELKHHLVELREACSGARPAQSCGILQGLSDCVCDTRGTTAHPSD

Variants of: B1
Assay: sfGFP reporter fluorescence (15 h) (µM FITC); higher = stronger transcriptional activation
Conditions: library round: Round 0; ligand: 30 µM Zn
Quick list: sfGFP reporter fluorescence per entry.

mutation-descriptor | sfGFP reporter fluorescence
E102A | 0.302
R20T | 0.061
H89W | 0.0608
